assay: basal MM1S mitochondrial membrane potential changes, profiling panel, cell-based, JC-1 fluorescence, 24 h, 100 nL compound (AID 1170); details: higher = more signal; note: test concentration not given here
Decision: z-score compared against 0.6; not below it gives fulfilled, below it gives not fulfilled.

* O=C1O[C@H](c2ccccc2)[C@H](c2ccccc2)N2[C@H]1[C@@H](C(=O)NC[C@H](O)c1ccccc1)[C@]1(C(=O)Nc3ccc(C#CC4(O)CCCCCC4)cc31)[C@H]2c1ccc(O)cc1 | not fulfilled
* C=CCC1(CC=C)C[C@H]2CO[C@H](c3ccc(OC)cc3)N2C1=O | not fulfilled
* CC(C)C[C@@H]1NC(=O)[C@@]23C(=O)N[C@@H](Cc4ccccc4)C2[C@H](C)[C@@]2(C)O[C@H]2C3/C=C/CC/C=C/CNC(=O)[C@@H](C)NC1=O (some centres not stated) | fulfilled
* O=C(NCc1ccccc1)[C@@H]1c2ccccc2C(=O)N(Cc2ccccc2Cl)[C@H]1c1ccc(CO)cc1 | not fulfilled
* Cc1ccc(S[C@]2(C(=O)NC3CC3)CC(=O)N(Cc3ccccc3C(F)(F)F)[C@@H]2c2ccc(CO)cc2I)cc1 | not fulfilled
* O=C(NC1CC1)[C@@H]1c2ccccc2C(=O)N(Cc2ccccc2C(F)(F)F)[C@H]1c1ccc(CO)cc1 | fulfilled

###

assay: yeast growth modulation, basal conditions, primary screen, YJM789 clinical isolate, OD600, 24 h (AID 1089);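 note: growth of clinical yeast isolate S. cerevisiae YJM 789 seeded 1000 cells per well; test concentration not given here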; conditions: S. cerevisiae YJM789 growth, higher = more signal, called active from +8 up or from −8 down
READOUT: z-score

* C=CCC(OC(C)=O)[C@@H]1[C@@H](N(Cc2ccc(-c3ccccc3)cc2)C(=O)c2ccc(-c3ccccc3)cc2)c2cc(OCCCO)ccc2N1C(=O)c1ccc(-c2ccccc2)cc1 (some centres undefined) | -0.611
* C=C(CCCC)/C(=C/C[C@H](OC(=O)c1ccncc1)c1ccc(CO)o1)c1cnc2ccccc2c1 | 3.23
* COc1ccc(CCNC(=O)[C@@]2(Sc3ccc(C)cc3)CC(=O)N(Cc3ccccc3)[C@@H]2c2ccc(CO)cc2I)cc1 | 0.44
* COc1ccc([Si](C)(C)[C@H]2[C@H](CC(=O)N3Cc4ccccc4C[C@H]3CO)O[C@@]3(C(=O)N(Cc4cccc(N5C(=O)COc6ccccc65)c4)c4ccccc43)[C@@H]2C)cc1 | -0.41

###

assay: E. coli growth modulation, two-sided OD650, primary screen, E. coli filamentation project, strain DRC41, 24 h (AID 1093); details: OD650, 24 h, higher = more signal, called active from +8 up or from −8 down;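 note: MC1000 strain lacking acrAB efflux and sulA so SOS filamentation is blocked; test concentration not given here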
Entries and their z-score
READOUT: z-score

* CC(=O)NCCCC[C@@H]1NC(=O)[C@@H]2C[C@H](C(=O)O)[C@H](c3cccc(OCCO)c3)N2C1=O | 0.809
* C=CC[C@@H](OC(=O)Nc1ccc(SC)cc1)c1ccc(OCCO)cc1 | 1.4
* Cc1ccc(S[C@]2(C(=O)NC3CC3)CC(=O)N(Cc3ccccc3C(F)(F)F)[C@@H]2c2ccc(CO)cc2I)cc1 | -0.195
* O=C(NCC(F)(F)F)[C@@H]1c2ccccc2C(=O)N(C2Cc3ccccc3C2)[C@H]1c1ccc(CO)cc1 | 2.12
* NCCCCCCNC(=O)[C@@H]1C[C@@H]2C(=O)N[C@@H](Cc3ccccc3)C(=O)N2[C@@H]1c1ccc(O)cc1 | 0.792
* CC(C)CCC[C@@H](C)[C@H]1CC[C@@]2(C)C3=C(CC[C@]12C)[C@@]1(C)CC[C@H](OC(=O)CCl)C(C)(C)C1CC3 (some centres undefined) | 3.26
* O=C1O[C@@H](c2ccccc2)[C@@H](c2ccccc2)N2[C@@H](c3ccc(OCCO)cc3)[C@]3(C(=O)Nc4ccc(C#CC5(O)CCCCCC5)cc43)[C@@H](C(=O)NC[C@H](O)c3ccccc3)[C@H]12 | 3.13
* CO[C@H]1O[C@H](CO)[C@@H](OC(=O)CCc2ccccc2)[C@@H]2OC(=O)[C@H](Cc3ccccc3)C/C=C/C[C@@H](Cc3ccccc3)C(=O)O[C@@H]12 | 1.98
* O=C1O[C@H](c2ccccc2)[C@H](c2ccccc2)N2[C@H]1[C@@H](C(=O)NC[C@H](O)c1ccccc1)[C@]1(C(=O)Nc3ccc(C#CC4(O)CCCCCC4)cc31)[C@H]2c1ccc(O)cc1 | 1.69
* C=CCNC(=O)[C@H]1[C@@H]2C(=O)O[C@@H](c3ccccc3)[C@@H](c3ccccc3)N2[C@@H](c2ccc(OCCO)cc2)[C@]12C(=O)Nc1ccc(C#CCCO)cc12 | 2.71
* CO[C@H]1O[C@H](CO)[C@@H](OC(=O)Nc2ccccc2)[C@H](OC(=O)Nc2ccccc2-c2ccccc2)[C@H]1OC(=O)Nc1ccccc1-c1ccccc1 | 1.39
* COCCCNC(=O)[C@@]1(CCS(=O)(=O)c2ccccc2)N=C(c2ccc(OCCCO)cc2)O[C@H]1c1ccccc1CN=[N+]=[N-] | 2.4
* O=C1c2ccccc2C(=O)c2cc([C@H]3Oc4ccccc4S(=O)(=O)N4CCC[C@@H]34)ccc21 | 2.81
* C#CCOc1ccc(C[C@H]2C(=O)O[C@H](Cc3ccccc3)[C@H](/C=C/C3CC3)N2CC#C)cc1 | 2.04
* [N-]=[N+]=NCc1ccccc1C[C@@]1(C(=O)NCc2ccccc2)N=C(c2ccc(OCCCO)cc2)O[C@@H]1c1ccccc1 | 2.1
* NCCCCCNC(=O)[C@H]1C[C@H]2C(=O)NCC(=O)N2[C@H]1c1ccc(O)cc1 | 1.1
* CN(C)CCCC[C@@H]1NC(=O)[C@@H]2C[C@H](C(=O)NCCCCCNC(=O)CS)[C@H](c3cccc(OCCO)c3)N2C1=O | 2.1
* C[C@@H](OCc1ccccc1)C1NC(=O)[C@@]23C(=O)N[C@@H](Cc4ccccc4)C2[C@H](C)[C@@]2(C)O[C@H]2C3/C=C/C/C=C\CNC(=O)[C@@H]2CCCN2C1=O (some centres undefined) | 2.34
* C=CCC(OC(C)=O)[C@@H]1[C@@H](N(Cc2ccc(-c3ccccc3)cc2)C(=O)c2ccc(-c3ccccc3)cc2)c2cc(OCCCO)ccc2N1C(=O)c1ccc(-c2ccccc2)cc1 (some centres undefined) | 1.99
* C=C(C1=CCN(S(=O)(=O)c2ccc(C)cc2)C1)[C@@H](OC(C)=O)[C@@H]1CCCN1S(=O)(=O)c1ccccc1[N+](=O)[O-] | 2.89
* Cc1ccc(N2C(=O)c3ccccc3[C@](C)(C(=O)NCC(F)(F)F)[C@@H]2c2ccc(CO)cc2)nc1 | 1.1
* COC(=O)c1c(CC[C@@H](CO)NC(=O)Nc2ccc(OC)cc2)oc(C(=O)Cc2ccccc2)c1C(=O)OC | 1.85
* CCCCC(=C=CC[C@H](O)c1cccc(OCCO)c1)CCO | 1.11
* O=C(O)[C@H]1C[C@H]2C(=O)NCC(=O)N2[C@H]1c1cccc(OCCO)c1 | 2.5
* C#CCN1C(C(=O)OCC)OC[C@H]1c1ccccc1 (some centres undefined) | 1.92
* CCOC(=O)C[C@H]1[C@H](OC(=O)c2ccc(-c3ccccc3)cc2)[C@@H](NC(=O)c2ccccc2)c2cc(OCCCO)ccc2N1C(=O)c1ccccc1 | 2.17
* COc1ccc(C(=O)Nc2cccc(CN3C(=O)[C@@]4(O[C@@H](CCO)[C@H]([Si](C)(C)c5ccc(OC)cc5)[C@H]4C)c4ccccc43)c2)cc1 | 1.68
* CC(C)CNC(=O)[C@@H]1c2ccccc2C(=O)N(Cc2ccc(OC(F)(F)F)cc2)[C@H]1c1ccc(CO)cc1 | 3.96
* COC(=O)C1=CC(c2ccc(CO)cc2)=CC(C2CC2)N(C)C=C1C(=O)OC (centres undefined) | 0.585

###

test system: Human papillomavirus type 1a protein E7 (residues 44-93); assay: HPV1a E7 fragment binders on microarrays, primary screen, biochemical, small-molecule microarray, residues 44-93, 635 nm fluorescence (AID 1108); conditions: small-molecule microarray binding, fluorescence 635 nm; higher = more signal;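 note: E7 fragment applied at 1 µg/mL in TBST for 1 h at 4 C; score combines spot fluorescence with its signal to noise ratio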
READOUT: composite z-score

* COC(=O)C(CC#Cc1ccc2c(c1)[C@]1(C(=O)N2)[C@H](C(N)=O)[C@H]2C(=O)O[C@H](c3ccccc3)[C@H](c3ccccc3)N2[C@@H]1c1ccc(O)cc1)C(=O)OC | -1.74
* COC(=O)c1c2oc(c1C(=O)OC)C(=O)N[C@@H](C(C)C)Cn1nncc1C1(CCCCC1)NC(=O)N[C@H](CO)CC2 | -0.683
* CC(C)(C)OC(=O)CC[C@]1(C(=O)NCc2ccccc2)N=C(c2ccc(OCCCO)cc2)O[C@H]1c1ccccc1N=[N+]=[N-] | -0.385

###

molecular target: Homeobox protein Hox-A13 (Mus musculus) (UniProt Q62424); assay: inhibitors of HoxA13-DNA binding, primary screen, biochemical, fluorescence polarization, labeled oligonucleotide (AID 1185); settings: 15 min, higher = more signal, called active from +8 up or from −8 down
Sequence (Q62424 whole entry, looked up): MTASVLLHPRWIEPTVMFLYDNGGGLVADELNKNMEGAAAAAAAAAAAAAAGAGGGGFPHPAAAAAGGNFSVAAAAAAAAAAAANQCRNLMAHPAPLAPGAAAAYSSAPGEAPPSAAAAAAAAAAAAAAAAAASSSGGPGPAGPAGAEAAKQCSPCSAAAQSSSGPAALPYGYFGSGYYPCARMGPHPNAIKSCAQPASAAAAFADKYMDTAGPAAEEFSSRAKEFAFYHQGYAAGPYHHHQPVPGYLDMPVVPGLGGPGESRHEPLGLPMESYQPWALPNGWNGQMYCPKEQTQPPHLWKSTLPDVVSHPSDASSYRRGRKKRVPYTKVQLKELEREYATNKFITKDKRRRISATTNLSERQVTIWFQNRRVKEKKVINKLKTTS
The source made the active and inactive calls.
Listed below: z-score values for each entry.
READOUT: z-score

• CCCNC(=O)[C@@H]1c2ccccc2C(=O)N(Cc2cc(C(F)(F)F)cc(C(F)(F)F)c2)[C@H]1c1ccc(CO)cc1 = -1.94 (inactive)
• C[N+](C)(C)CCCCNC(=O)[C@@H]1C[C@@H]2C(=O)NCC(=O)N2[C@@H]1c1cccc(OCCO)c1 = -1.4 (inactive)
• COc1ccc([Si](C)(C)[C@@H]2[C@@H](CC(=O)N3CCC[C@H]3CO)O[C@]3(C(=O)N(Cc4ccc(I)cc4)c4ccccc43)[C@H]2C)cc1 = -2.86 (inactive)
• CC(C)(C)OC(=O)CC[C@@]1(C(=O)NCc2ccccc2)N=C(c2ccc(OCCCO)cc2)O[C@@H]1c1ccccc1CN=[N+]=[N-] = -0.088 (inactive)

FYI, the data here is from PubChem BioAssay.
